Target chain: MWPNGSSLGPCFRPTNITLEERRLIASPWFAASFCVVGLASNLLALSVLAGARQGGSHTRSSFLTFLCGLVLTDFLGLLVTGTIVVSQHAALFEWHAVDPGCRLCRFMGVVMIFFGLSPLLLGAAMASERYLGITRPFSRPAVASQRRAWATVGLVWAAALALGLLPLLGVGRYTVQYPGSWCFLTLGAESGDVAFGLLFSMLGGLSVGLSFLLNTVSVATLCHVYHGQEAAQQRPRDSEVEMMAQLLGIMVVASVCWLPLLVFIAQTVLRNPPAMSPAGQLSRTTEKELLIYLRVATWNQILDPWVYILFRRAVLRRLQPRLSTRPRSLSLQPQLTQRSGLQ
measurementKind: pIC50
The value called pIC50 is obtained by taking minus log10 of the concentration in mol/L.

Below are worked cases with known answers.
1) CC1=C(O)C(Cc2cccc(CCNS(=O)(=O)c3ccc(Cl)cc3)c2)CC1=O (stereo not drawn) [Compound 42] :: 6.48
2) O=c1c(O)c(NCc2cccc(CCNS(=O)(=O)c3ccc(Cl)cc3)c2)c1=O [Compound 61] :: 6.44

Query: Name the reported pIC50 value associated with the compound O=C1C=C(O)C(Cc2cccc(CCNS(=O)(=O)c3ccc(Cl)cc3)c2)C1 (stereo not drawn) [Compound 41]
Reply: 6.69

Origin of measurements: patent US8530520B2
